Multiple publications report IC50 for Renin (Homo sapiens); what follows is a combined list.
Please respond with the number in nM and leave the unit unwritten.

Tell me reported IC50 for C[C@H](NC(=O)[C@H](Cc1ccccc1)NC(=O)OC(C)(C)C)C(=O)N[C@@H](CC1CCCCC1)[C@@H](O)[C@@H](O)CN , tested with Renin (Homo sapiens).
55

Please answer likewise for CC(C)C[C@H](NC(=O)[C@H](Cc1ccccc1)NC(=O)OC(C)(C)C)C(=O)N[C@@H](CC1CCCCC1)[C@@H](O)C(F)(F)CSC(C)C
25

Please answer likewise for C#CC[C@H](NC(=O)[C@@H](CC(=O)N(C)CCN(C)C)Cc1ccccc1)C(=O)N[C@@H](CC1CCCCC1)[C@@H](O)[C@@H](O)CC#C (relative stereo)
34

----------
Multiple publications report pIC50 for Renin (Homo sapiens); what follows is a combined list.
Quick note: pIC50 values are minus log10 of concentrations in mol/L.

Could you share which pIC50 value was measured for COC(=O)C(O)[C@H](CC(C)C)NC(=O)[C@H](Cc1c[nH]cn1)NC(=O)C(CC(=O)N(C)C)Cc1cccc2ccccc12 (mixture of isomers) ?
7.11

Please answer likewise for CCOC(=O)N1Cc2ccccc2CC1C(=O)N[C@@H](Cc1c[nH]cn1)C(=O)N[C@@H](CC1CCCCC1)[C@@H](O)[C@@H](O)CC(C)C (stereo partly drawn)
8.00

Please answer likewise for CC(C)C[C@H](O)[C@H](O)[C@H](CC1CCCCC1)NC(=O)[C@H](Cc1cscn1)NC(=O)[C@@H](CC(=O)CS(=O)(=O)C(C)(C)C)Cc1ccccc1
9.35

----------
Multiple publications report pIC50 for Renin (Homo sapiens, UniProt P00797); what follows is a combined list.
pIC50: −log10 of the molar value.
Decide by pIC50: equal to or exceeding 7 means True, less means False.

Assess whether reported pIC50 for CNC(=O)C(O)[C@H](CC(C)C)NC(=O)[C@H](Cc1cnc[nH]1)NC(=O)C(CC(=O)NCCc1ccccc1)Cc1cccc2ccccc12 (single isomer, unassigned) sits at 7 or higher.
False

Please answer likewise for CC(C)CC(COC(C(=O)NC(CC(C)C)C(O)CC(=O)NC(C)C(=O)NC(CC(C)C)C(O)CC(=O)NCc1ccccc1)c1ccccc1)NC(=O)OC(C)(C)C (stereo not drawn)
False

Please answer likewise for CC(C)CC(NC(=O)CC(O)C(CC(C)C)NC(=O)/C=C/C(O)C(Cc1ccccc1)NC(=O)OC(C)(C)C)C(=O)NCc1ccccc1 (stereo not drawn)
False

Please answer likewise for COc1ccccc1COCCCOc1ccc([C@H]2CCNC[C@@H]2OCc2ccc3c(c2)N(CCNS(C)(=O)=O)CCC3)cc1
True

Please answer likewise for CC(C)C[C@H](O)[C@H](O)[C@H](CC1CCCCC1)NC(=O)[C@@H](Cc1c[nH]cn1)N1CCN(C(=O)OC(C)(C)C)[C@H](Cc2ccccc2)C1=O
True

----------
Multiple publications report IC50 for Renin (Homo sapiens, UniProt P00797); what follows is a combined list.
Could you mark each record True if its IC50 falls strictly under 1000 nM, and False if it equals or exceeds it?

For CCn1cc(C(=O)NC[C@@H](C)C(=O)N[C@@H](CC2CCCCC2)[C@@H](O)[C@@H](O)CC(C)C)c(=O)c2ccc(C)nc21 , is the recorded IC50 below the cut-off of 1000 nM?
True

Please answer likewise for CC(C)C[C@H](NC(=O)[C@H](C)NC(=O)[C@H](Cc1ccccc1)NC(=O)OC(C)(C)C)[C@@H](O)CCS(=O)(=O)CCc1ccccc1
False

Please answer likewise for CC(C)C[C@H](O)[C@H](O)[C@H](CC1CCCCC1)NC(=O)[C@H](Cc1cscn1)NC(=O)[C@H](Cc1ccccc1)Cc1csc(N(C)C)n1
True

Please answer likewise for CC(C)CC(=O)NC(CSC(Cc1ccccc1)C(=O)NC(CC(C)C)C(O)CC(=O)NC(CC(C)C)C(=O)NCc1ccccc1)Cc1ccccc1 (stereo not drawn)
False

Please answer likewise for CCCC[C@H](NC(=O)c1cc2ccccc2[nH]1)C(=O)N[C@@H](CC1CCCCC1)[C@@H](O)[C@@H](O)CC(C)C
True

Please answer likewise for COC(=O)[C@@H](O)[C@H](CC(C)C)NC(=O)[C@H](Cc1cnc[nH]1)NC(=O)C(CC(=O)NCCc1ccccc1)Cc1cccc2ccccc12 (single isomer, unassigned)
False

----------
Multiple publications report IC50 for Renin (Homo sapiens, UniProt P00797); what follows is a combined list.
Could you mark each record yes if its IC50 falls strictly under 30 nM, and no if it equals or exceeds it?

For CCCC(C(=O)NCC(C)CC)C(O)C(CC1CCCCC1)NC(=O)C(Cc1cnc[nH]1)NC(=O)C(Cc1ccccc1)NC(=O)OC(C)(C)C (stereo not shown) , is the recorded IC50 below the cut-off of 30 nM?
yes

Please answer likewise for CC(C)CCC(=O)NC[C@H](O)[C@H](O)[C@H](CC1CCCCC1)NC(=O)C(Cc1cc[nH]n1)NC(=O)[C@H](Cc1ccccc1)NC(=O)OC(C)(C)C (stereo partly shown)
yes

Please answer likewise for CCCC[C@@H](C(=O)N[C@@H](CC1CCCCC1)[C@@H](O)[C@@H](O)CC(C)C)N1CC(=O)N[C@H](Cc2ccccc2)C1
no

Please answer likewise for C#CC[C@H](O)[C@H](O)[C@H](CC1CCCCC1)NC(=O)[C@H](Cc1cscn1)NC(=O)[C@@H](CC(=O)N(C)CCN(C)C)Cc1ccccc1
yes

Please answer likewise for CC(C)(C)C(=O)C[C@@H](Cc1ccccc1)C(=O)N[C@@H](Cc1c[nH]cn1)C(=O)N[C@@H](CC1CCCCC1)[C@@H](O)CN1CCCCC1=O
no

Please answer likewise for CC(C)C[C@H](O)[C@H](O)[C@H](CC1CCCCC1)NC(=O)[C@H](Cc1cscn1)NC(=O)[C@@H](CC(=O)N(C)CCN1CCOCC1)Cc1ccccc1
yes

Please answer likewise for COCCCc1ccc(Cl)c(CN(C(=O)C(CN)Cc2cccnc2N)C2CC2)c1 (stereo not shown)
yes

Please answer likewise for O=C(N[C@@H](CC1CCCCC1)[C@@H](O)[C@@H](O)C1CC1)[C@H](Cc1c[nH]cn1)NC(=O)[C@H](Cc1ccccc1)OC(=O)N1CCCCC1
yes

Please answer likewise for CC(C)C[C@H](O)[C@H](O)[C@H](CC1CCCCC1)NC(=O)[C@H](Cc1cnc[nH]1)N1CC[C@H](Cc2ccccc2)C1=O
no

Please answer likewise for CC(C)C[C@H](O)[C@H](O)[C@H](CC1CCCCC1)NC(=O)[C@H](Cc1cscn1)N1Cc2c([nH]c3ccccc23)C1=O
yes

Please answer likewise for CC(C)CC(NC(=O)C(Cc1ccccc1)NC(=O)OC(C)(C)C)C(=O)N[C@@H](CC1CCCCC1)C(=O)C(F)(F)CSC(C)C (stereo partly shown)
yes

Please answer likewise for CC(C)C[C@H](O)[C@H](O)[C@H](CC1CCCCC1)NC(=O)[C@H](C)CNC(=O)CCCC1CCCCC1 (relative stereo)
no

----------
pIC50: −log10 of the molar value.
Multiple publications report pIC50 for Renin (Homo sapiens); what follows is a combined list.
Decide by pIC50: equal to or exceeding 7 means t, less means f.

Assess whether reported pIC50 for CC(C)C[C@H](O)[C@H](O)[C@H](CC1CCCCC1)NC(=O)[C@H](Cc1c[nH]cn1)N1CC[C@@H](Cc2ccccc2)C1=O sits at 7 or higher.
f

Please answer likewise for CC[C@H](O)[C@H](O)[C@H](CC1CCCCC1)NC(=O)[C@H](Cc1cscn1)NC(=O)[C@@H](CC(=O)N(C)CCn1cccn1)Cc1ccccc1
t

Please answer likewise for CC(C)C[C@H](O)[C@H](O)[C@H](CC1CCCCC1)NC(=O)[C@H](Cc1cscn1)NC(=O)[C@H](Cc1ccccc1)Cn1cccn1
t

Please answer likewise for CC(C)C[C@H](NC(=O)C(C)NC(=O)C(Cc1ccccc1)NC(=O)OC(C)(C)C)[C@@H](O)CCSCCc1ccccc1 (stereo partly drawn)
f

Please answer likewise for COc1cccc2cc(C(=O)NC[C@@H](C)C(=O)N[C@@H](CC3CCCCC3)[C@@H](O)[C@@H](O)CC(C)C)oc12
f

----------
Multiple publications report pIC50 for Renin (Homo sapiens, UniProt P00797); what follows is a combined list.
Quick note: pIC50 values are minus log10 of concentrations in mol/L.

Could you share which pIC50 value was measured for COC(=O)[C@@H]1CCCN1C(=O)CC(Cc1cccc2ccccc12)C(=O)N[C@@H](Cc1c[nH]cn1)C(=O)N[C@@H](CC(C)C)[C@@H](O)CC(=O)NCCC(C)C (stereo partly drawn) ?
6.92

Please answer likewise for CC(C)C[C@H](O)[C@H](O)[C@H](CC1CCCCC1)NC(=O)[C@H](Cc1cscn1)NC(=O)[C@@H](CC(=O)CN1CCOCC1)Cc1ccccc1
9.25

Please answer likewise for CC(C)(C)S(=O)(=O)C[C@@H](Cc1ccccc1)C(=O)N[C@@H](Cc1c[nH]cn1)C(=O)N[C@@H](CC1CCCCC1)[C@@H](O)[C@@H](F)C1CC1
8.64
